Assay: In vivo pharmacokinetics study
Parameters: species or system ICR (CD-1) mice
Conditions: male, ICR (CD-1), mouse, plasma, iv, 15 mg/kg, IV 15 mg/kg, noncompartmental analysis; read-out: CLIV, mouse (in vivo systemic clearance)
Readout Name: clearance (mL/min/kg)
API: value field is a number in mL/min/kg; no unit string.

O=C1CCN(c2ccc(N3CCN(CC4CN(C(=O)[C@]5(Cc6cccc(Nc7nccs7)n6)CC[C@@H](Oc6cccc(Cl)c6F)CC5)C4)CC3)nc2)C(=O)N1 [PROTAC 23] ... 35
O=C1CCC(Nc2ccc(N3CCN(C4CN(C(=O)[C@]5(Cc6cccc(Nc7nccs7)n6)CC[C@@H](Oc6cccc(Cl)c6F)CC5)C4)CC3)c(F)c2)C(=O)N1 (stereo partly shown) [PROTAC 18] ... 23
Cc1cc(Nc2ccc(F)c(CC3(C(=O)N4CCC(CN5CCN(c6ccc(N7CCC(=O)NC7=O)cn6)CC5)CC4)CCN(Cc4cccc(Cl)c4F)CC3)n2)n[nH]1 [SK4454] ... 18

Turning now to a further record.
Complete the entry with clearance for O=C1CCN(c2ccc(N3CCN(CC4CCN(C(=O)[C@]5(Cc6cccc(Nc7nccs7)n6)CC[C@@H](Oc6cccc(Cl)c6F)CC5)CC4)CC3)nc2)C(=O)N1 [PROTAC 24] 22

Numbers sourced from paper PMC12670405.
